Assay: Cytotoxicity against human MCF7 cells after 48 hrs by MTT assay
Type: functional
Settings: MCF7, 48 h
Each entry below carries its recorded log10(GI50).
reported endpoint: log10(GI50) (log10 of the value in µM)

* COc1cccc2c1C(=O)c1c(O)c3c(c(O)c1C2=O)C[C@@](O)(C(=O)CO)C[C@@H]3O[C@H]1C[C@H](N)[C@H](O)[C@H](C)O1 | -1.70
* O=[N+]([O-])c1ccc(N2C(O)CC(c3ccccc3)N2C(c2ccco2)N2CCOCC2)c([N+](=O)[O-])c1 (configuration not stated) | 1.51
* O=[N+]([O-])c1ccc(N2C(O)CC(c3ccccc3)N2C(c2c[nH]c3ccccc23)N2CCOCC2)c([N+](=O)[O-])c1 (configuration not stated) | 1.39
* O=[N+]([O-])c1ccc(C(N2CCOCC2)N2C(c3ccccc3)CC(O)N2c2ccc([N+](=O)[O-])cc2[N+](=O)[O-])cc1 (configuration not stated) | 1.32
* CC(C)=CCC/C(C)=C\C(N1CCOCC1)N1C(c2ccccc2)CC(O)N1c1ccc([N+](=O)[O-])cc1[N+](=O)[O-] (configuration not stated) | 0.89
* O=[N+]([O-])c1ccc(N2C(O)CC(c3ccccc3)N2C(c2cncs2)N2CCOCC2)c([N+](=O)[O-])c1 (configuration not stated) | 1.53
* CN(C)c1ccc(C(N2CCOCC2)N2C(c3ccccc3)CC(O)N2c2ccc([N+](=O)[O-])cc2[N+](=O)[O-])cc1 (configuration not stated) | 1.14

These entries and their values trace back to ChEMBL document CHEMBL3872243.
